This collection of values is drawn from patent US20240301052A1.

Biological target: T1, human SLC34A2 (human, UniProt O95436 1-690)
T1 construct: whole, on cells; also called human solute carrier 34 A2; NaPi2b
T1 sequence (looked up): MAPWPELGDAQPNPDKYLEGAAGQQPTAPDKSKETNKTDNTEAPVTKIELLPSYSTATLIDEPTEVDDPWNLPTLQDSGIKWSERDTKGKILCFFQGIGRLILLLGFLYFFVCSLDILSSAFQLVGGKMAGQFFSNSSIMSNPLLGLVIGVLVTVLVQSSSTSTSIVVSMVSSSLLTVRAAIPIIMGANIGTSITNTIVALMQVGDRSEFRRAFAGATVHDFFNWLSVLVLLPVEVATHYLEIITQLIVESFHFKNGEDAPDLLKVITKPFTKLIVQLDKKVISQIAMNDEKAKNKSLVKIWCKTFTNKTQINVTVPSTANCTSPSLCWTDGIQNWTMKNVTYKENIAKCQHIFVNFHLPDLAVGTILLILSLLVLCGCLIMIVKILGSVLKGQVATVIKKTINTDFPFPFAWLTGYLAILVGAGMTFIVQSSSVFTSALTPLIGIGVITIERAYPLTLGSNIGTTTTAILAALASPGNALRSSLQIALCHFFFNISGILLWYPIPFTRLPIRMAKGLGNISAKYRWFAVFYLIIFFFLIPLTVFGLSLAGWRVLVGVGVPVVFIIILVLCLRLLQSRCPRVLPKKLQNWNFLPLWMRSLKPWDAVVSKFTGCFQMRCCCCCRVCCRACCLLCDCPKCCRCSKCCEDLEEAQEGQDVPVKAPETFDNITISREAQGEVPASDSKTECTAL
Experiment: FACS, OVCAR3 cells
ENDPOINT: pEC50
Worth noting: pEC50 values are minus log10 of concentrations stated in mol/L.

BINDER	VALUE OBSERVED
xi91C9F1 hIgG1 (antibody, V domains shown, chimeric, hIgG1) VH: EVQLQQSGPELVKPGTSVKISCKTSGFFFTEYIIHWVKQSHGRSLEWIGGIIPNNGVTNYKQNFRGKAALTADKSSNTAYMELRSLTSEDSAVYYCARWRNGYYSAMDSWGQGTSVTVSS VL: DIVVTQSHKFMSTSLGDRVSITCTASQDVGTAVAWYQQKPGHSPKLLIYWASTRHTGVPERFTGSGSGTDFTLTITNVQSEDLADYFCQQYRTSPLTFGVGTKLELK	8.75
91C9F1.p1.z5 hIgG1 (antibody, V domains shown, humanized hIgG1) VH: QVQLVQSGAEVKKPGSSVKVSCKTSGFFFTEYIIHWVRQAPGQGLEWIGGIIPNNDVTNYKQNFRGRVTLTADKSTSTAYMELSSLRSEDTAVYYCARWRNAYYSAMDSWGQGTTVTVSS VL: DIQMTQSPSSLSASVGDRVTITCTASQDVGTAVAWYQQKPGKVPKLLIYWASTRHTGVPSRFSGSGSGTDFTLTISSLQPEDVATYYCQQYRTSPLTFGGGTKVEIK	8.53
91C9F1.p1 hIgG1 (antibody, V domains shown, PTM-derisked chimeric, hIgG1; also called 91C9F1.pl hIgG1) VH: EVQLQQSGPELVKPGTSVKISCKTSGFFFTEYIIHWVKQSHGRSLEWIGGIIPNNDVTNYKQNFRGKAALTADKSSNTAYMELRSLTSEDSAVYYCARWRNAYYSAMDSWGQGTSVTVSS VL: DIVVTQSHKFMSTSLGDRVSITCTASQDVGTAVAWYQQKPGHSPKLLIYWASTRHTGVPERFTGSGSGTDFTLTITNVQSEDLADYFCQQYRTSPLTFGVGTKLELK	8.64
91C9F1.p1.z9 hIgG1 (antibody, V domains shown, humanized hIgG1) VH: QVQLVQSGAEVVKPGSSVKVSCKTSGFFFTEYIIHWVRQSPGQGLEWIGGIIPNNDVTNYKQNFRGRATLTADKSTSTAYMELSSLRSEDTAVYYCARWRNAYYSAMDSWGQGTTVTVSS VL: DIQMTQSPSSLSASVGDRVTITCTASQDVGTAVAWYQQKPGKVPKLLIYWASTRHTGVPSRFSGSGSGTDFTLTISSLQPEDVATYYCQQYRTSPLTFGGGTKVEIK	8.57
91C9F1.p1.z7 hIgG1 (antibody, V domains shown, humanized hIgG1) VH: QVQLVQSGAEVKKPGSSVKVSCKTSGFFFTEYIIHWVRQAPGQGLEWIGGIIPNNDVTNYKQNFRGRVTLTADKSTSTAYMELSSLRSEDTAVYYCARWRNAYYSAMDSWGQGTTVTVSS VL: DIQVTQSPSSLSTSVGDRVTITCTASQDVGTAVAWYQQKPGKSPKLLIYWASTRHTGVPERFTGSGSGTDFTLTISSVQPEDVATYFCQQYRTSPLTFGVGTKVEIK	8.78

Sample 91C9F1.p1.z14 hIgG1 (antibody, V domains shown, humanized hIgG1) VH: QVQLVQSGAEVVKPGSSVKISCKTSGFFFTEYIIHWVKQSPGQGLEWIGGIIPNNDVTNYKQNFRGRATLTADKSTNTAYMELRSSLRSEDTAVYYCARWRNAYYSAMDSWGQGTTVTVSS VL: DIQMTQSPSSLSTSVGDRVTITCTASQDVGTAVAWYQQKPGKSPKLLIYWASTRHTGVPERFSGSGSGTDFTLTISSLQPEDVATYFCQQYRTSPLTFGGGTKVEIK ; pEC50 observed: 8.41
